R1 = Variant EC50/WT EC50 values for the compounds below.
Biological target: human TAS1R2-WT/TAS1R3-M110T (Homo sapiens, UniProt Q7RTX0+Q8TE23, M110T)
Construct: expressed in transfected cells; host or cells: HEK293T stably expressing Gα16gust44
Sequence (Q8TE23 20-839): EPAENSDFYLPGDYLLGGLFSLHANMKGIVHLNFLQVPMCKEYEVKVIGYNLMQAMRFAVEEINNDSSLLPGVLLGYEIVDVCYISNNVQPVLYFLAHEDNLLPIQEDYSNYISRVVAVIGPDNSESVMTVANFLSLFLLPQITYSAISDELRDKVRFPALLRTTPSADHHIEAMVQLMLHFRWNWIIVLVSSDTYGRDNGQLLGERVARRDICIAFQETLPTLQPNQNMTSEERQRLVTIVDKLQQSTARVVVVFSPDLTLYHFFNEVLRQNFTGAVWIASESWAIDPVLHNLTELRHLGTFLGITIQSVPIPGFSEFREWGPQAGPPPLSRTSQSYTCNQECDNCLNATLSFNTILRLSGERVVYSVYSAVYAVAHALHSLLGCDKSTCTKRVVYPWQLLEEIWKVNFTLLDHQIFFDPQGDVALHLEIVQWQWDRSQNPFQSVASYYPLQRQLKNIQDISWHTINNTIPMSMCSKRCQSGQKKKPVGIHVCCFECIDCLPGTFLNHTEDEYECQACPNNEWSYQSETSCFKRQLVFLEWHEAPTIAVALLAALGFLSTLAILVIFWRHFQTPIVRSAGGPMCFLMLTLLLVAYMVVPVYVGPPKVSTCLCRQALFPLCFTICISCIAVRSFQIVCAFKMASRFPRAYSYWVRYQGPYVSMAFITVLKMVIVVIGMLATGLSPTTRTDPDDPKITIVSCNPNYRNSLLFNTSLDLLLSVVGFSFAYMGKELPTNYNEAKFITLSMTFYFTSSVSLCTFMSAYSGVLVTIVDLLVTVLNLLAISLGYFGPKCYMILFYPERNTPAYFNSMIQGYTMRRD
Sequence (Q7RTX0 21-852 M110T): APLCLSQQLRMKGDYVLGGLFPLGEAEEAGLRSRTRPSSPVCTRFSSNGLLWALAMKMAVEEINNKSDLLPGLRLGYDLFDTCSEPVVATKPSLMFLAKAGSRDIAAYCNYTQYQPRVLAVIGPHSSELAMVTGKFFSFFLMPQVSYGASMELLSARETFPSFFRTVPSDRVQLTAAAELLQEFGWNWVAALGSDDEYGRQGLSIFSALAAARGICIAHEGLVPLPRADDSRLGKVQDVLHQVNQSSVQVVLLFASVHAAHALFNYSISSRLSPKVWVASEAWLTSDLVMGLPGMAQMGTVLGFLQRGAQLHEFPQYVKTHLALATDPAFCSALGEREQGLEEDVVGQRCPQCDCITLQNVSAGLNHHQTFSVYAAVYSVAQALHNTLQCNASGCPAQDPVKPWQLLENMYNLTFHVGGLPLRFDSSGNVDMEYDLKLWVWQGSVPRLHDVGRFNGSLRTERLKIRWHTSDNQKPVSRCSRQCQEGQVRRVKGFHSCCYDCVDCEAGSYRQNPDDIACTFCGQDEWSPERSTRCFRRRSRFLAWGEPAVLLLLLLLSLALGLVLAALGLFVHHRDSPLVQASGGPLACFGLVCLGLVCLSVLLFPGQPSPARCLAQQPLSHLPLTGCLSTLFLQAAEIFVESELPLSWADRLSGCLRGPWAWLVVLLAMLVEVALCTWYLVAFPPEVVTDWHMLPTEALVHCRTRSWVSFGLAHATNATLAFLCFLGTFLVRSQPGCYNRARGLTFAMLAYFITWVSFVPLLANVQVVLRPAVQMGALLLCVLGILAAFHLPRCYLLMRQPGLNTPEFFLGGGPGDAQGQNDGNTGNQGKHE
Test: Calcium mobilisation assay, TAS1R2-WT with TAS1R3 variant M110T
Assay type: cell-based
EXPERIMENTAL_READOUT: R1 = Variant EC50/WT EC50

>  <COMPOUND>
C=C1C[C@@]23CC[C@H]4[C@@](C)(CCC[C@@]4(C)C(=O)O[C@@H]4O[C@H](CO)[C@@H](O)[C@H](O[C@@H]5O[C@H](CO)[C@@H](O)[C@H](O)[C@H]5O)[C@H]4O[C@@H]4O[C@H](CO)[C@@H](O)[C@H](O)[C@H]4O)[C@@H]2CC[C@]1(O[C@@H]1O[C@H](CO)[C@@H](O)[C@H](O[C@@H]2O[C@H](CO)[C@@H](O)[C@H](O)[C@H]2O)[C@H]1O[C@@H]1O[C@H](CO)[C@@H](O)[C@H](O)[C@H]1O)C3 [Rebaudioside M, rebaudioside M]

>  <ASSAY_SYSTEM>
human TAS1R2-WT/TAS1R3-M110T (Homo sapiens, UniProt Q7RTX0+Q8TE23, M110T)

>  <ENDPOINT_VALUE>
2.6

$$$$
>  <COMPOUND>
C[C@H](CC[C@@H](O[C@@H]1O[C@H](CO[C@@H]2O[C@H](CO)[C@@H](O)[C@H](O)[C@H]2O)[C@@H](O)[C@H](O)[C@H]1O[C@@H]1O[C@H](CO)[C@@H](O)[C@H](O)[C@H]1O)C(C)(C)O)[C@H]1CC[C@@]2(C)[C@@H]3CC=C4[C@@H](CC[C@H](O[C@@H]5O[C@H](CO[C@@H]6O[C@H](CO)[C@@H](O)[C@H](O)[C@H]6O)[C@@H](O)[C@H](O)[C@H]5O)C4(C)C)[C@]3(C)[C@H](O)C[C@]12C [Mogroside V, mogroside V]

>  <ASSAY_SYSTEM>
human TAS1R2-WT/TAS1R3-M110T (Homo sapiens, UniProt Q7RTX0+Q8TE23, M110T)

>  <ENDPOINT_VALUE>
3.0

$$$$
>  <COMPOUND>
OC[C@H]1O[C@H](O[C@]2(CCl)O[C@H](CCl)[C@@H](O)[C@@H]2O)[C@H](O)[C@@H](O)[C@H]1Cl [Sucralose]

>  <ASSAY_SYSTEM>
human TAS1R2-WT/TAS1R3-M110T (Homo sapiens, UniProt Q7RTX0+Q8TE23, M110T)

>  <ENDPOINT_VALUE>
2.6

$$$$

Where these numbers come from: paper PMC11945486
